- System: biotinyl-Phe-oxazolone
- assay procedure: self-aminoacylation, catalytic enhancement (BFO) (fold over background); higher = more active; k-Seq, kA / k0A0; sequences stand for … in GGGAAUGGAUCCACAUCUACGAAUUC…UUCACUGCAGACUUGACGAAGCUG
Variants at the floor of the assay were thinned out.
Response key: y means self-aminoacylation >= 10; n means self-aminoacylation < 10.

Decide: self-aminoacylation of AACUUUGCUAAUAGUCGCCAG [Fam3.1 aminoacylation ribozyme variant] >= 10? y

Decide: self-aminoacylation of CUGAUUCAAACAAUCGGUCUG [Fam1A.1 aminoacylation ribozyme variant] >= 10? n

Decide: self-aminoacylation of AUUAACCUGGUCAUCGGGUGA [Fam2.1 aminoacylation ribozyme variant] >= 10? y

Decide: self-aminoacylation of ACACACUUCCAGCAAUCGGUC [Fam1B.1 aminoacylation ribozyme variant] >= 10? n

Decide: self-aminoacylation of AUUACCCUGGUCAUGGAAUGA [Fam2.1 aminoacylation ribozyme variant] >= 10? n

Decide: self-aminoacylation of AUUUCCCUGGACAUCGAGUGA [Fam2.1 aminoacylation ribozyme variant] >= 10? y

Decide: self-aminoacylation of AUUACCGUCGUCAUCGAGUGA [Fam2.1 aminoacylation ribozyme variant] >= 10? n

Decide: self-aminoacylation of AUUAUCCUGGCCAUCGAGUGA [Fam2.1 aminoacylation ribozyme variant] >= 10? y

* * *

- Tested on: biotinyl-Ile-oxazolone
- assay procedure: self-aminoacylation, catalytic enhancement (BIO) (fold over background); higher = more active; k-Seq, kA / k0A0; sequences stand for … in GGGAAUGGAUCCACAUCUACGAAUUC…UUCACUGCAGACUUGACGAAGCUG
Variants at the floor of the assay were thinned out.
quantity: self-aminoacylation
Answer with a number only.

Find the recorded self-aminoacylation belonging to CUACUUCAAACAAUCGGACUA [Fam1A.1 aminoacylation ribozyme variant] and report it. 0.831

Find the recorded self-aminoacylation belonging to AAGUUUGCUAAUAGGCGCACG [Fam3.1 aminoacylation ribozyme variant] and report it. 0.981

Find the recorded self-aminoacylation belonging to CGACUUCAAACAAUCAGUCUG [Fam1A.1 aminoacylation ribozyme variant] and report it. 0.938

Find the recorded self-aminoacylation belonging to CCACACUGCAAGAAAUCGGUC [Fam1B.1 aminoacylation ribozyme variant] and report it. 1.51

Find the recorded self-aminoacylation belonging to CUAUUUCAAACAAUCGGGCUG [Fam1A.1 aminoacylation ribozyme variant] and report it. 1.24

* * *

- Tested on: biotinyl-Val-oxazolone
- assay procedure: self-aminoacylation, catalytic enhancement (BVO) (fold over background); higher = more active; k-Seq, kA / k0A0; sequences stand for … in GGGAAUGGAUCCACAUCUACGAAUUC…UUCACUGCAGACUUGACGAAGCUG
Variants at the floor of the assay were thinned out.
quantity: self-aminoacylation
Answer with a number only.

Find the recorded self-aminoacylation belonging to CUACAUCAAACAAUCGGUCUU [Fam1A.1 aminoacylation ribozyme variant] and report it. 0.748

Find the recorded self-aminoacylation belonging to CCACACGUCAAGCAAUCUGUC [Fam1B.1 aminoacylation ribozyme variant] and report it. 0.543

Find the recorded self-aminoacylation belonging to CCACACUUCCAUCAAUCGGUC [Fam1B.1 aminoacylation ribozyme variant] and report it. 0.732

Find the recorded self-aminoacylation belonging to AUUCACCCAGGCCAUCGGGUG [Fam2.2 aminoacylation ribozyme variant] and report it. 3.7

Find the recorded self-aminoacylation belonging to CUACUUCAAAGAUUCGGUCUG [Fam1A.1 aminoacylation ribozyme variant] and report it. 1.08

Find the recorded self-aminoacylation belonging to ACACACUUCCAGCAAUCGGUC [Fam1B.1 aminoacylation ribozyme variant] and report it. 1.3

Find the recorded self-aminoacylation belonging to CUACUUCAAACAUUCGGUCUA [Fam1A.1 aminoacylation ribozyme variant] and report it. 1.02

Find the recorded self-aminoacylation belonging to AUUCACCCAGGUCAUCGGGUC [Fam2.2 aminoacylation ribozyme variant] and report it. 1.88
